# Tested on: MCF7
# ASSAY_DETAILS: Antiproliferative activity against human MCF7 cells after 3 days by sulforhodamine B assay
# Format: functional
# CONDITION_INFO: MCF7, 72 h, read-out: ED50 (the source's name)
Measured EC50, listed per entry.
Number only, in µM; omit the unit.

COMPOUND	EXPERIMENTAL_TARGET	MEASURED_NUMBER
CCCCOC1=C(CCC)C(=O)/C(=C(O)/C=C/c2ccccc2)C(=O)C1(CCC)CCC	MCF7	5.3

Incoming: Which EC50 reading was recorded for the compound CCCC1(CC=C(C)C)C(=O)C(C(=O)/C=C/c2ccccc2)=C(O)C(CCC)(CCC)C1=O (centres undefined) ?
Outgoing: 5.8

Incoming: COC1=C(CCC(C)C)C(=O)/C(=C(O)/C=C/c2ccccc2)C(=O)C1(CCC(C)C)CCC(C)C , same question.
Outgoing: 25.2

Incoming: CCCOC1=C(CCC)C(=O)/C(=C(O)/C=C/c2ccc(I)cc2)C(=O)C1(CCC)CCC , same question.
Outgoing: 5.1
